Experiment: Primary qHTS for delayed death inhibitors of the malarial parasite plastid, 96 hour incubation; further: potency means the concentration at half of the fitted maximal effect
Conditions: P. falciparum luciferase reporter growth; series mostly up to 28.7 µM
Screen size: about 320,000 compounds; about 22,000 (6.9%) were called active. Roughly 27% stayed inconclusive and do not appear here. For the sample, actives were picked, then their nearest neighbours and some compounds at random.
OBSERVABLE: Potency

Answered cases to consult:
COMPOUND	OBSERVABLE	RECORDED VALUE
CC(=O)Nc1ccc(S(=O)(=O)N2CCn3cccc3C2C)cc1 (stereo unspecified)	Potency	inactive
COCC1CCCN(C(=O)c2ccc3oc(C(C)C)nc3c2)C1 (stereo unspecified)	Potency	inactive
CC(C)(C)c1nc(NCC2CCCO2)c2nnn(Cc3ccccc3)c2n1 (stereo unspecified)	Potency	inactive
CCc1ccc(N(CC(=O)NCc2cccnc2)S(=O)(=O)c2ccccc2)cc1	Potency	inactive
COc1ccc(CCNc2ncnc3c2nnn3Cc2ccccc2)cc1	Potency	2940 nM (active)

Query compound follows.
Value of Potency reported for the compound CC1CC(C)CN(C(=O)CCNC(=O)Cn2cnc3ccccc3c2=O)C1 (stereo unspecified) is inactive

###

Test: Primary qHTS for delayed death inhibitors of the malarial parasite plastid, 96 hour incubation
Conditions: P. falciparum luciferase reporter growth; series mostly up to 28.7 µM
The whole screen tested about 320,000 compounds, of which about 22,000 (6.9%) were called active. Roughly 27% stayed inconclusive and do not appear here. The call rests on the fitted dose curve; in most records, active means well fitted inhibition curve with a large enough effect; inconclusive means small, poorly fitted or top-dose-only effect, or another doubt; inactive means no such curve, though single readings can be large or run the other way. Only a selection was taken, and actives are over-represented in it overall.
API: response.call in active, inactive

COMPOUND	ASSIGNED LABEL
CN(CC(=O)NC(=O)Nc1ccccc1F)Cc1ccccc1	inactive
Cc1ccc(C23CC4CC(CC(C(=O)NCC(=O)O)(C4)C2)C3)cc1	inactive
COc1cc(C2C(C(=O)Nc3ccccc3OC)=C(C)Nc3ncnn32)ccc1O (stereo unspecified)	inactive
CN1CCC[C@@H]1CCO[C@](C)(c1ccccc1)c1ccc(Cl)cc1	active
Cc1ccc(NC(=O)CN(C)C(=O)COC(=O)C(C)(C)Oc2ccc(Cl)cc2)cc1	inactive
Cn1cc(CNC(=O)c2ccc(OC3CCN(Cc4ccccn4)CC3)cc2)cn1	inactive
Cc1ccsc1/C=C1\SC(N2CCOCC2)=NC1=O	inactive
CC1CCN(C2=NC(=O)/C(=C/c3cn[nH]c3-c3ccccc3)S2)CC1	active

q: I would be grateful if you could indicate the recorded call for `COc1ccccc1Nc1nc(N)nc(CSC(=S)N2CCOCC2)n1` .
a: inactive

q: I would be grateful if you could indicate the recorded call for COc1ccccc1NC1=NC(c2ccc(Cl)cc2)N=C(N)N1 (stereo unspecified) .
a: active

q: I would be grateful if you could indicate the recorded call for COc1cc2c(cc1OC)C(c1ccccc1Br)NC(=O)C2 (stereo unspecified) .
a: inactive

###

Assay: Primary qHTS for delayed death inhibitors of the malarial parasite plastid, 96 hour incubation; further: potency means the concentration at half of the fitted maximal effect
Conditions: P. falciparum luciferase reporter growth; series mostly up to 28.7 µM
Source text: The goal of this screen is to discover new antimalarial compounds that act by inhibiting the development of the apicoplast in the malarial parasite Plasmodium falciparum. […] We have developed a cell-based assay that measures parasite growth based on the expression of an integrated copy of a firefly luciferase reporter. […] Growth inhibition is detected by a decrease in luciferase activity. […]
About 22,000 (6.9%) of roughly 320,000 compounds were called active. Not shown: some 27% with an inconclusive outcome. Only a selection was taken, and actives are over-represented in it overall.
OBSERVABLE: Potency

Answered cases to consult:
SMILES ENTRY	RECORDED VALUE
CCOC(=O)N1CCN(C(=O)c2ccc(CN(c3ccc(C)c(C)c3)S(C)(=O)=O)cc2)CC1	inactive
CN(Cc1ccc(F)cc1)C(=O)COc1ccc2ccccc2c1	inactive
COc1ccccc1CNC(=O)COC(=O)CNS(=O)(=O)c1ccc(NC(C)=O)cc1	inactive
CCOC(=O)N1CCN(C(=O)CN(c2ccc(C)c(C)c2)S(=O)(=O)c2ccccc2)CC1	inactive
COc1cc(C#Cc2ccc3cc(CCCO)oc(=O)c3c2)cc(OC)c1	inactive
Cc1ccc(OCCCC(=O)Nc2ccc3c(c2)OCCO3)cc1	inactive
CCCCC/C=C/C1=CC(=O)C[C@H](c2ccc(Cl)cc2)C1	inactive
C/C(=N\NC(=O)c1ccc2ccccc2c1)c1cccnc1	inactive
CCN1CCN(C(=O)c2ccc(CN(c3ccc(C)c(C)c3)S(C)(=O)=O)cc2)CC1	10.4 µM (active)

Value of Potency reported for the compound `N#C/C(=C\c1ccc(-c2cccc([N+](=O)[O-])c2)o1)C(=O)NCCN1CCOCC1` is 10.4 µM (active)

###

Experiment: Primary qHTS for delayed death inhibitors of the malarial parasite plastid, 96 hour incubation; further: potency means the concentration at half of the fitted maximal effect
Settings: P. falciparum luciferase reporter growth; series mostly up to 28.7 µM
The whole screen tested about 320,000 compounds, of which about 22,000 (6.9%) were called active. Inconclusive results (about 27%) are left out. The sample holds actives, similar compounds and a random draw of the others, so the mix is not that of the screen.
OBSERVABLE: Potency

Answered cases to consult:
COMPOUND	Potency
O=C(Nc1ccc(C(=O)O)cc1)/C(=C\c1ccccc1)NC(=O)c1ccc(Br)cc1	inactive
Cc1nc(SCC(=O)N2CC(=O)Nc3ccccc32)c2c(C)c(C)sc2n1	inactive
CC1CN(C(=S)Nc2ccccc2F)CC(C)O1 (stereo unspecified)	inactive
Cc1ccc(CS(=O)(=O)CCC(=O)NCc2ccc(F)cc2)cc1	inactive

Value of Potency reported for the compound COc1cccc(Nc2nnc(SCC(=O)N3CC(C)OC(C)C3)s2)c1 (stereo unspecified) is inactive

Value of Potency reported for the compound `COc1cc(NC(=O)C2CCN(c3cnccn3)CC2)cc(OC)c1` is 2.62 µM (active)

###

Assay: Primary qHTS for delayed death inhibitors of the malarial parasite plastid, 96 hour incubation
Conditions: P. falciparum luciferase reporter growth; series mostly up to 28.7 µM
In all, about 320,000 compounds went through this assay and about 22,000 (6.9%) were called active. Roughly 27% stayed inconclusive and do not appear here. The call rests on the fitted dose curve; in most records, active means well fitted inhibition curve with a large enough effect; inconclusive means small, poorly fitted or top-dose-only effect, or another doubt; inactive means no such curve, though single readings can be large or run the other way. The sample as a whole holds a higher share of actives than the screen did.
API: response.call in t = active, f = inactive

Example results:
MOLECULE	ASSIGNED LABEL
Cc1cc(C)c(S(=O)(=O)N2CCCC2CNC(=O)c2ccc3c(c2)OCO3)c(C)c1 (stereo unspecified)	t
CCOc1cc(C2/C(=C(/O)c3ccc(S(=O)(=O)N4CCCCC4)cc3)C(=O)C(=O)N2CCOC)ccc1O (stereo unspecified)	f
N=c1c2c(-c3ccccc3)c(-c3ccccc3)n(Cc3ccccc3)c2ncn1CCCO	t
CCc1nnc(NC(=O)c2c(O)c3c([nH]c2=O)CCCC3)s1	f
COc1ccc(C2=NOC(COC(=O)c3ccc4ccccc4n3)C2)cc1 (stereo unspecified)	f
COc1ccc(Cl)cc1NS(=O)(=O)c1cccc(C(=O)NC2CCC(O)CC2)c1 (stereo unspecified)	f
O=C(NCc1ccccc1)C(c1ccccc1)N(C(=O)c1csnn1)c1ccc(F)cc1 (stereo unspecified)	f
COc1ccc(C2=NOC(Cn3nc(C(=O)NCc4ccc5c(c4)OCO5)cc3-c3ccccc3)C2)cc1 (stereo unspecified)	t
COc1ccc(CN2C3CCCC2CC(NC(=O)c2cccc(F)c2)C3)cc1 (stereo unspecified)	f
COc1ccc(CCNC(=O)CCCCCNC(=O)N2CCn3c2nc2ccccc23)cc1OC	t

Read the next record carefully.
q: I would be grateful if you could indicate the recorded call for `COc1ccc(OCCC(=O)c2ccc(OC)cc2)cc1` .
a: f

###

Test: Primary qHTS for delayed death inhibitors of the malarial parasite plastid, 96 hour incubation
Conditions: P. falciparum luciferase reporter growth; series mostly up to 28.7 µM
Text: The goal of this screen is to discover new antimalarial compounds that act by inhibiting the development of the apicoplast in the malarial parasite Plasmodium falciparum. […] We have developed a cell-based assay that measures parasite growth based on the expression of an integrated copy of a firefly luciferase reporter. […] Growth inhibition is detected by a decrease in luciferase activity. […]
Out of some 320,000 compounds screened, about 22,000 (6.9%) were called active. Not shown: some 27% with an inconclusive outcome. Calls come from the whole dose curve; as a rule, active = well fitted inhibition curve with a large enough effect; inconclusive = small, poorly fitted or top-dose-only effect, or another doubt; inactive = no such curve, though single readings can be large or run the other way. What follows is part of a selection rich in actives, with near analogues and random picks from the rest.
API: response.call in active, inactive

Example results:
COMPOUND	ASSIGNED LABEL
Cc1ccc2[nH]c(=O)c(CN(CCCN(C)C)C(=O)Nc3cccc(Cl)c3)cc2c1	active
COc1ccc2[nH]c(=O)c(CN(CC3CCCO3)C(=O)Nc3ccccc3)cc2c1 (stereo unspecified)	inactive
CCCCCn1c(SCCC(C)C)nc2c1c(=O)[nH]c(=O)n2C	active
Cc1ccc2[nH]c(=O)c(CN(CC3COCCO3)C(=O)Nc3ccccc3C)cc2c1 (stereo unspecified)	active
CS(=O)(=O)c1ccc2nc(NC(=O)c3ccc(N4CCCC4=O)cc3)sc2c1	inactive

q: I would be grateful if you could indicate the recorded call for `O=C(Nc1ccc(F)cc1)c1ccc(S(=O)(=O)NCc2cccnc2)cc1` .
a: inactive

q: I would be grateful if you could indicate the recorded call for `O=S(=O)(Nc1n[nH]c(C(F)(F)F)n1)c1ccccc1` .
a: inactive

q: I would be grateful if you could indicate the recorded call for `CC(=O)OCc1cc2cc(C)ccc2[nH]c1=O` .
a: inactive

q: I would be grateful if you could indicate the recorded call for COc1ccc2[nH]c(=O)c(C3c4cc(OC)c(OC)cc4CCN3C(=O)c3ccco3)cc2c1 (stereo unspecified) .
a: inactive

q: I would be grateful if you could indicate the recorded call for `CCC(=O)N(CCc1ccccc1)Cc1cc2cc(C)ccc2[nH]c1=O` .
a: inactive

q: I would be grateful if you could indicate the recorded call for `COCCn1c(SCC(=O)Nc2nc(C)cs2)nnc1C(C)C` .
a: inactive
